- Test system: 3D7
- ASSAY_PROCEDURE: qHTS profiling for inhibitors of Plasmodium falciparum proliferation (AID 504749); further: nearly all actives have a fitted effect of over 60% in size
- TEST_CONTEXT: P. falciparum in erythrocytes, SYBR Green DNA, 72 h; series mostly up to 28.7 µM
Results filed as inconclusive are left out. Calls of active or inactive are those of the source. The call rests on the fitted dose curve; in most records, active means well fitted inhibition curve with a large enough effect; inconclusive means small, poorly fitted or top-dose-only effect; inactive means flat fitted curve, though single readings scatter.
Entry note: the call must match one of active, inactive

Input: For `CC(=O)[C@H]1CC[C@H]2[C@@H]3CC[C@H]4C[C@](C)(O)CC[C@]4(C)[C@H]3CC[C@]12C` , which call appears in the assay record?
Output: inactive

Input: For `c1ccc(C2CC2)c(OCC2=NCCN2)c1` , which call appears in the assay record?
Output: inactive

Input: For `CCN(CC)CCOC(=O)C(O)(c1ccccc1)c1ccccc1` , which call appears in the assay record?
Output: inactive

Input: For `O=[N+]([O-])c1cc([As](=O)(O)O)ccc1O` , which call appears in the assay record?
Output: active

Input: For `CC(=O)[C@H]1CC[C@H]2[C@@H]3CC[C@H]4C[C@H](O)CC[C@]4(C)[C@H]3C(=O)C[C@]12C` , which call appears in the assay record?
Output: inactive

Input: For `Clc1cccc(N2CCNCC2)c1` , which call appears in the assay record?
Output: inactive

Input: For `Cc1ccc(-c2nc3ccc(C)cn3c2CC(=O)N(C)C)cc1` , which call appears in the assay record?
Output: inactive

Input: For `Fc1ccc(C(OCCN2CCN(CCCc3ccccc3)CC2)c2ccc(F)cc2)cc1` , which call appears in the assay record?
Output: active

Input: For `Cc1cccc(C)c1NC1=NCCCS1` , which call appears in the assay record?
Output: inactive

Input: For `CCOC(=O)C1(c2ccccc2)CCN(CCC(C#N)(c2ccccc2)c2ccccc2)CC1` , which call appears in the assay record?
Output: active

Input: For `OCCOc1ccccc1` , which call appears in the assay record?
Output: inactive

Input: For NCC(O)c1ccc(O)cc1 (stereo not given) , which call appears in the assay record?
Output: inactive

Input: For CCC(COC(=O)c1cc(OC)c(OC)c(OC)c1)(c1ccccc1)N(C)C (stereo not given) , which call appears in the assay record?
Output: inactive

Input: For `CN(C)CCc1ccc(O)cc1` , which call appears in the assay record?
Output: inactive

Input: For COc1ccc(C(CN(C)C)C2(O)CCCCC2)cc1 (stereo not given) , which call appears in the assay record?
Output: inactive

Input: For CC1OC(C)OC(C)O1 (stereo not given) , which call appears in the assay record?
Output: inactive

Input: For `NCC1(CC(=O)O)CCCCC1` , which call appears in the assay record?
Output: inactive

Input: For `FC(F)(F)c1cccc(C2=CCN(CCc3ccc4ccccc4c3)CC2)c1` , which call appears in the assay record?
Output: inactive

Input: For `C[C@]12C/C(=C/O)C(=O)C[C@@H]1CC[C@@H]1[C@@H]2CC[C@@]2(C)[C@H]1CC[C@]2(C)O` , which call appears in the assay record?
Output: inactive

Input: For `O=C(O)c1ccc2[nH]cc(CCCCN3CC=C(c4ccccc4)CC3)c2c1` , which call appears in the assay record?
Output: inactive

Input: For NCC(CC(=O)O)c1ccc(Cl)cc1 (stereo not given) , which call appears in the assay record?
Output: inactive

Input: For `C=C1CC[C@@]2(O)[C@H]3Cc4ccc(O)c5c4[C@@]2(CCN3CC2CC2)[C@H]1O5` , which call appears in the assay record?
Output: inactive

Input: For CC1NCCOC1c1ccccc1 (stereo not given) , which call appears in the assay record?
Output: inactive

Input: For CC(CCc1ccccc1)NC(C)C(O)c1ccc(O)cc1 (stereo not given) , which call appears in the assay record?
Output: inactive

Input: For `NCCc1cc(O)c(O)cc1O` , which call appears in the assay record?
Output: inactive
